B1: ATE1 (parent)
chain: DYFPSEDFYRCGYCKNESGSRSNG

Variants of: B1
Experiment: protein stability index of a GFP-peptide fusion (GPS, HEK-293T) (PSI 1-6); higher = more stable;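 also: lentivirally expressed fusions sorted by FACS into six bins by GFP to DsRed ratio, PSI derived from sequencing read proportions per bin multiplied by bin number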
Conditions: c terminus: a fixed tail appended
METRIC NAME: protein stability index
Give your answer as a number; write no unit.

Reported protein stability index of `E17N` : 2
